EXPERIMENTAL SYSTEM: α-1A adrenoreceptor (rat submaxillary gland) (Rattus norvegicus)
Sequence (P43140 whole entry): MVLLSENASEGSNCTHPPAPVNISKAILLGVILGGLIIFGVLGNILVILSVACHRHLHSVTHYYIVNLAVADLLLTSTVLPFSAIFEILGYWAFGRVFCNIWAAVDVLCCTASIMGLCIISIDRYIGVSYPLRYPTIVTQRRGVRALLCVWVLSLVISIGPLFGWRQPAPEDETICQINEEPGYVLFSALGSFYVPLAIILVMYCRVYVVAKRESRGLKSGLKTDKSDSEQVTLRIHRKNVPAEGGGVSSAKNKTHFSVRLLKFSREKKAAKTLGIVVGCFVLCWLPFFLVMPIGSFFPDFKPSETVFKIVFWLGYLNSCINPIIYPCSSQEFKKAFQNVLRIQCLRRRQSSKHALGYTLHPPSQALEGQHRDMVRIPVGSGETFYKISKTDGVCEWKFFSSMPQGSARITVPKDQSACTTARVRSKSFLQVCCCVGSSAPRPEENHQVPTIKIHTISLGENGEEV
PROTOCOL: biochemical
Format: binding
MEASUREMENT CONTEXT: read-out: Radioligand Binding (Ki, nM) 1A (Rat)
Structures can show the parent of a compound that is named as a salt.
Task for the reader: assign each of the following compounds its reported Ki.
The answer is to be given in nM; state only the numeric part.

Qu. # lookup: α-1A adrenoreceptor (rat submaxillary gland) (Rattus norvegicus) Ki, key = COc1cccc2c1[C@@H]1CN(CCCn3c(=O)[nH]c4c(sc5ccccc54)c3=O)C[C@@H]1CO2.Cl (racemic) [Example 66, hydrochloride]
Ans. 214

Qu. Under α-1A adrenoreceptor (rat submaxillary gland) (Rattus norvegicus): report Ki of COc1ccc2c(c1)[C@@H]1CN(CCn3c(=O)[nH]c4c(sc5ncccc54)c3=O)C[C@@H]1CO2 (racemic) [Example 78, hydrochloride] .
Ans. 0.297

Qu. Consider the compound COc1ccc2c(c1)OC[C@H]1CN(CCCn3c(=O)[nH]c4c(sc5ccccc54)c3=O)C[C@@H]21.Cl (racemic) [Example 64, hydrochloride] tested on α-1A adrenoreceptor (rat submaxillary gland) (Rattus norvegicus); state its Ki.
Ans. 4.2
